src = ChEMBL document CHEMBL3576775

# ASSAYED_SYSTEM: Prostaglandin G/H synthase 2 (Homo sapiens)
# Sequence (whole entry): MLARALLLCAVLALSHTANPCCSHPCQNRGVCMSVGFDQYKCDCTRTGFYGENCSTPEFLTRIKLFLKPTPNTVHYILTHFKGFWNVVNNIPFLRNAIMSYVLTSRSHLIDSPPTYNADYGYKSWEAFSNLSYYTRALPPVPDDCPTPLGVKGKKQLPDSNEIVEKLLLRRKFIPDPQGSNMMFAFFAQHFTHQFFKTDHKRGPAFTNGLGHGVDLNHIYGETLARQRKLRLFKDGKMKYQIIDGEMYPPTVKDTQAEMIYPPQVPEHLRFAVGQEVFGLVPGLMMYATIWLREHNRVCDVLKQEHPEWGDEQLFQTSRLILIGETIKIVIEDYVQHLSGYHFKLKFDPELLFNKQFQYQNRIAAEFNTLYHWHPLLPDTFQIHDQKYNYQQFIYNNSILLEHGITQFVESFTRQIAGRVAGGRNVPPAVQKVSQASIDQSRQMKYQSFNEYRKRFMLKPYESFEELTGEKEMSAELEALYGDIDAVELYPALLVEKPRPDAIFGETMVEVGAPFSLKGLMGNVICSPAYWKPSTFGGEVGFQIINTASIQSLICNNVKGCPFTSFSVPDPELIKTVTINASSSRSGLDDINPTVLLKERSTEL
ATTRIBUTE_MEASURED: Ka

Known Ka results, listed for orientation:
1) COC(=O)CNC(=O)CNC(=O)C(=O)c1cn(S(=O)(=O)c2ccc(C)cc2)c2ccccc12	1.81 ×10² /M
2) Cc1ccc(S(=O)(=O)n2cc(C(=O)C(=O)NCC(=O)N[C@@H](Cc3c[nH]c4ccccc34)C(=O)O)c3ccccc32)cc1	3.25 ×10⁶ /M
3) COC(=O)CNC(=O)[C@H](Cc1c[nH]c2ccccc12)NC(=O)C(=O)c1cn(S(=O)(=O)c2ccc(C)cc2)c2ccccc12	7.91 ×10³ /M
4) Cc1ccc(S(=O)(=O)n2cc(C(=O)C(=O)N[C@@H](Cc3c[nH]c4ccccc34)C(=O)NCC(=O)O)c3ccccc32)cc1	3.29 ×10⁵ /M
5) COC(=O)CC[C@H](NC(=O)[C@H](Cc1cnc[nH]1)NC(=O)C(=O)c1cn(S(=O)(=O)c2ccc(C)cc2)c2ccccc12)C(=O)OC	4.43 ×10⁴ /M
6) Cc1ccc(S(=O)(=O)n2cc(C(=O)C(=O)N[C@@H](Cc3cnc[nH]3)C(=O)N[C@@H](CCC(=O)O)C(=O)O)c3ccccc32)cc1	7.76 ×10⁵ /M

Item "COC(=O)[C@H](Cc1c[nH]c2ccccc12)NC(=O)CNC(=O)C(=O)c1cn(S(=O)(=O)c2ccc(C)cc2)c2ccccc12" ; assay system Prostaglandin G/H synthase 2 (Homo sapiens); Ka reported as 9.87 ×10³ /M

Entry "Cc1ccc(S(=O)(=O)n2cc(C(=O)C(=O)NCC(=O)NCC(=O)O)c3ccccc32)cc1" , tested on Prostaglandin G/H synthase 2 (Homo sapiens), has a reported Ka of 1.9 ×10³ /M
